Give measured Selectivity Ki(hCatS)/Ki(hCatK) for each item. Keep answers brief.
Molecular target: recombinant human cathepsin K (hCatK) (Homo sapiens (Human), UniProt P43235)
Sequence (P43235 115-329): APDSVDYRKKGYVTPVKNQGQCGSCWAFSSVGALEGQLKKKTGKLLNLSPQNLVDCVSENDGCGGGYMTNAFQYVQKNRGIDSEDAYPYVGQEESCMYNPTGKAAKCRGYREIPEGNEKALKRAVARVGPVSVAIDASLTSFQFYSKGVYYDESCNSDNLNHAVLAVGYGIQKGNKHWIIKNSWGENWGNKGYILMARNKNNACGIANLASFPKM
Assay: CatK functional enzyme assay (fluorogenic substrate Z-FR-AMC)
Type: biochemical
Details: ratio of Ki hCatS to Ki hCatK
Answers are plain numbers.

Look at each compound and report its Selectivity Ki(hCatS)/Ki(hCatK).
1. O=C(N[C@H](C(=O)N1C[C@H](Cl)[C@H]2OCC(=O)[C@H]21)C1CCCC1)c1ncc(-c2cccnn2)s1
2. O=C(N[C@H](C(=O)N1C[C@H](Cl)[C@H]2OCC(=O)[C@H]21)C1CCCC1)c1ccc(-c2cnccn2)s1
3. O=C(N[C@H](C(=O)N1C[C@H](Cl)[C@H]2OCC(=O)[C@H]21)C1CCCC1)c1ccc(-c2cncnc2)s1

Response line:
1: 50; 2: 169; 3: 53

Look at each compound and report its Selectivity Ki(hCatS)/Ki(hCatK).
1. O=C(N[C@H](C(=O)N1C[C@H](Cl)[C@H]2OCC(=O)[C@H]21)C1CCCC1)c1ccc(-c2ccncc2)s1
2. O=C(N[C@H](C(=O)N1C[C@H](Cl)[C@H]2OCC(=O)[C@H]21)C1CCCC1)c1ccc(-c2cncc(F)c2)s1
3. O=C(N[C@H](C(=O)N1C[C@H](Cl)[C@H]2OCC(=O)[C@H]21)C1CCCC1)c1ccc(-c2cccnn2)s1
4. O=C(N[C@H](C(=O)N1C[C@H](Cl)[C@H]2OCC(=O)[C@H]21)C1CCCC1)c1cccc(-c2cccnc2)c1 [Comparative Example C1, reference compound]
5. O=C(N[C@H](C(=O)N1C[C@H](Cl)[C@H]2OCC(=O)[C@H]21)C1CCCC1)c1ccc(-c2ccnnc2)s1

Response line:
210
55
99
6
22

Prompt line: For O=C(N[C@H](C(=O)N1C[C@H](Cl)[C@H]2OCC(=O)[C@H]21)C1CCCC1)c1ccc(-c2cccnc2)s1 , what is its reported Selectivity Ki(hCatS)/Ki(hCatK)?
Response line: 453

###

Target: recombinant human cathepsin K (hCatK) (Homo sapiens (Human), UniProt P43235)
Assay: CatK functional enzyme assay (fluorogenic substrate Z-FR-AMC)
Conditions: Ki calculated by Cheng Prusoff equation; pH 5.5
Could you please mark met for values of Ki below 2 nM and not met for values at or above it?

INSERT INTO assay_data (compound, class) VALUES
  ('O=C(N[C@H](C(=O)N1C[C@H](Cl)[C@H]2OCC(=O)[C@H]21)C1CCCC1)c1ccc(-c2cccnc2)s1 [Example 2]', 'met'),
  ('O=C(N[C@H](C(=O)N1C[C@H](Cl)[C@H]2OCC(=O)[C@H]21)C1CCCC1)c1ccc(-c2ccncc2)s1 [Example 8]', 'met'),
  ('O=C(N[C@H](C(=O)N1C[C@H](Cl)[C@H]2OCC(=O)[C@H]21)C1CCCC1)c1ccc(-c2cnccn2)s1 [Example 5]', 'not met');

Prompt line: Could you please tell me whether Ki recorded for O=C(N[C@H](C(=O)N1C[C@H](Cl)[C@H]2OCC(=O)[C@H]21)C1CCCC1)c1cccc(-c2cccnc2)c1 [Comparative Example C1, reference compound] is less than 2 nM?
Response line: not met

Prompt line: Now try O=C(N[C@H](C(=O)N1C[C@H](Cl)[C@H]2OCC(=O)[C@H]21)C1CCCC1)c1ccc(-c2ccnnc2)s1 [Example 4] .
Response line: met

Prompt line: Now try O=C(N[C@H](C(=O)N1C[C@H](Cl)[C@H]2OCC(=O)[C@H]21)C1CCCC1)c1ccc(-c2cccnn2)s1 [Example 1] .
Response line: met
